Exercise: state measured log10 TGI for each of the compounds provided.
Tested on: MDA-MB-231 breast
protocolDetails: NCI tumour cell line growth inhibition, 48 h
Values reflect log10 of reported TGI (µM).

Provide log10 TGI for all items below, preserving their order.
1. O=C(COc1cccc(/C=C2\CSc3ccc(Cl)cc3C2=O)c1)c1ccc(Cl)cc1
2. Clc1cc(Cl)c2cc3cccc[n+]3cc2c1Cl
3. Oc1[nH]c(=S)[nH]c1/C=C1/C(c2ccccc2)=Nc2ccccc21
4. CC(C)(C)CC(C)(C)c1ccc(O)c(Cc2ccc(Cl)cc2Cl)c1
5. COc1c(/C=C/C=O)cc2c(c1OC)OCO2
6. C#Cc1cccc(Nc2ncnc3ccc(OCCCCNCCS(C)(=O)=O)cc23)c1
7. NC(=S)N/N=C1\c2ccccc2-c2c(F)c(F)c(F)c(F)c21
8. CC(C)(C)C1CCC2c3c([nH]c4ccccc34)C3C(=O)N(c4ccccc4[N+](=O)[O-])C(=O)C3C2C1 (stereo not given)

Result:
1. 1.22
2. 1.69
3. 1.53
4. 0.47
5. 1.90
6. 1.07
7. 1.03
8. 1.43

Ask: Request - read-out log10 TGI | tested on MDA-MB-231 breast | compound `COC(=O)[C@]12CC[C@@H](C)[C@H](C)[C@@H]1C1=CC[C@@H]3[C@@]4(C)C[C@@H](OC(=O)/C=C/c5ccccc5)[C@H](O)[C@@](C)(CO)[C@@H]4[C@H](O)C[C@@]3(C)[C@]1(C)CC2`
Result: 0.62

----------
System: SF-268 CNS
protocolDetails: NCI tumour cell line growth inhibition, 48 h
So I've got a bunch of compounds here, and I need their TGI values.

{"columns": ["compound", "resultType", "reportedValue"],
 "data": [
  ["CCOC(=O)C1=C(C)NC2=C(C(=O)N(c3ccccc3)C2c2ccccc2)C1c1ccccc1 (centres undefined)", "TGI", "33.7 µM"],
  ["Cc1cc(C)nc(NS(=O)(=O)c2ccc(Nc3c4ccccc4nc4c(C(=O)NC(CO)(CO)CO)cccc34)cc2)n1", "TGI", "> 100 µM"],
  ["N#CC(C#N)=C1CCOc2ccc(F)cc21", "TGI", "48.4 µM"],
  ["Oc1[nH]c(=S)[nH]c1/C=C1/C(c2ccccc2)=Nc2ccccc21", "TGI", "> 100 µM"],
  ["CC(C)(C)c1cc(/C=N/NC(=O)c2ccccc2NC(=O)c2cccs2)c(O)c(C(C)(C)C)c1", "TGI", "> 100 µM"]
]}

For each of the items listed, what is its TGI?
1. COC(=O)c1ncc2c(=O)[nH]c3ccccc3c2c1C(=O)OC
2. CC(=O)CC/C=C(\C)[C@H](O)[C@H](C)C(=O)O[C@H]1C[C@H](C)C=C2C=C[C@@]3(C)O[C@@H](O)CC(=O)[C@]3(C)[C@H]21
3. CCC1C(C(=O)Nc2ccccc2C)=C(C)NC(C)=C1c1ccccc1C (centres undefined)
4. N#CCC(=O)N/N=C1/C(=O)N(c2cc(Cl)ccc2Cl)C(=O)C(=O)C1c1nc2ccccc2s1 (centres undefined)

Result:
1: > 100 µM; 2: 5.63 µM; 3: > 61.1 µM; 4: > 100 µM

----------
Tested on: MDA-MB-435
protocolDetails: NCI tumour cell line growth inhibition, 48 h
Field: TGI. Provide a value for each of the molecules that follow.
Give bare numbers, in µM.

Below are worked cases with known answers.
{"columns": ["molecule", "unit", "TGI"],
 "data": [
  ["O=C1CC(c2ccccc2)Cc2nc3ccc(Br)cc3cc21 (configuration not stated)", "µM", 0.126],
  ["C#CC(=O)Nc1cccc2c1cc(C)n2-c1nc2c(c(NCc3ccccc3)n1)CCCC2", "µM", 1.66],
  ["Cc1c2c(nc3ccccc13)C(=O)c1cccnc1C2=O", "µM", 3.2]
]}

Parameter requested: TGI. Apply to each item below.
1. CCN(CC)CC[n+]1ccc2c(C)c3[nH]c4ccc(O)cc4c3c(C)c2c1
2. CCN1c2cc(Br)cc3[nH]c(=O)n(c23)CCC1C (configuration not stated)
3. C=C1C[C@@H]2O[C@H]3[C@H]4[C@@H](C[C@@H](C)[C@@H](OC(C)=O)[C@H]42)[C@@H](C)CO[C@@]3(C)[C@H](OC(=O)CCCCCCC)C[C@H]1O
4. O=C(Oc1c(Cl)cc(C2(c3cc(Cl)c(OC(=O)c4ccccc4)c(Cl)c3)CCCCC2)cc1Cl)c1ccccc1
5. COc1cc(/C=C2\N=C(c3ccccc3)N(c3ccc(C(=O)c4ccccc4)cc3N3C(=O)/C(=C/c4ccc(O)c(OC)c4)N=C3c3ccccc3)C2=O)ccc1O

Result:
[23.1, 16.8, 34.8, 24.7, 8.16]

----------
Tested on: TK-10 renal
protocolDetails: NCI tumour cell line growth inhibition, 48 h
resultType: TGI

{"columns": ["compound", "studySystem", "TGI"],
 "data": [
  ["Cn1cc(C2=C(c3cn(-c4ccccc4)c4ccccc34)C(=O)NC2=O)c2ccccc21", "TK-10 renal", "> 25 µM"],
  ["O=C(OCCCl)C1OC(n2cc(F)c(=O)[nH]c2=O)CC1O (stereo unspecified)", "TK-10 renal", "> 100 µM"],
  ["CCOc1cn(C2OC(CO)C(O)C2O)c(=O)[nH]c1=O (stereo unspecified)", "TK-10 renal", "> 100 µM"],
  ["O=C(O)c1ccccc1CC1Cc2cc3c(cc2C1)CCC3", "TK-10 renal", "> 100 µM"],
  ["CC(=O)NC(Cc1ccccc1)NC(=O)O (stereo unspecified)", "TK-10 renal", "> 100 µM"]
]}

Next item in the queue.
Ask: What value of TGI has been recorded for this entry: `CCC1(CC)C(=O)N(C(=O)c2ccccc2)N(C(=O)c2ccc(Cl)cc2)C1=O`
Result: > 75 µM

----------
Tested on: XF 498 CNS
protocolDetails: NCI tumour cell line growth inhibition, 48 h
resultType: TGI

{"columns": ["molecule", "reportedValue"],
 "data": [
  ["COc1cccc(/C=C/C(=O)c2sc(C(N)=S)nc2C)c1O", "> 100 µM"],
  ["NS(=O)(=O)c1ccc(Nc2c3ccccc3nc3c(C(=O)N4CCN(CCO)CC4)cccc23)cc1", "> 100 µM"],
  ["COc1ccc(C(=O)c2c3cc(OC)c(OC)c(OC)c3cc[n+]2C)cc1", "33.3 µM"]
]}

Hi there! I need TGI for each item below, if you can.
1. COc1ccc(C2ON(c3ccccc3)CC=C2C)cc1 (stereo not given)
2. O=[N+]([O-])c1ccc(C(Cl)C(Cl)c2ccc(C(Cl)C(Cl)c3ccc([N+](=O)[O-])cc3[N+](=O)[O-])cc2)c([N+](=O)[O-])c1 (stereo not given)
3. CCn1c2ccccc2c(=O)c2c(OC)ccc(OC)c21
4. O=C(CCc1ccccc1)NS(=O)(=O)c1ccccc1
5. S=c1c2[nH]cnc2ncn1CCSC1=NC=NC2=NC=NC21 (stereo not given)
6. CCOc1ccc(/C=C/c2cc(OC)c(OC)c(OC)c2)cc1
7. Cn1c2c(c3ccccc31)CCN(CCCCN1CCN(c3ccccc3)CC1)C2=O

Result:
> 100 µM
0.389 µM
> 100 µM
> 100 µM
> 100 µM
> 100 µM
> 70.1 µM

For the 3 molecules below, give their TGI values.
1. CC[C@]12C=CCN3CCC4(c5cc([C@@]6(C(=O)OC)CC7CN(CCc8c6[nH]c6ccccc86)C[C@@H]6CCCC[C@H]76)c(OC)cc5N(C)C4[C@](O)(C(=O)OC)C1OC(C)=O)[C@@H]32 (stereo not given in full)
2. Nc1ccc(O)c2c1C(=O)c1c(N)ccc(O)c1C2=O
3. CCN(CC)CC(C)C(=O)/C=C/c1ccc(C)cc1 (stereo not given)

Result:
3.79 µM
> 100 µM
2.98 µM

List reported TGI for each of these molecules:
1. COC(=O)c1ncc2c(=O)[nH]c3ccccc3c2c1C(=O)OC
2. NS(=O)(=O)c1ccc(NC(=O)Cc2nc3ccccc3s2)cc1

Result:
1: > 100 µM; 2: 29.8 µM

----------
Tested on: HT29 colon
protocolDetails: NCI tumour cell line growth inhibition, 48 h
Consider the following compounds; for each one, report its TGI.

Reference set, count: 2
{"columns": ["compound", "resultType", "reportedValue"],
 "data": [
  ["COc1ccc2nc3c([N+](=O)[O-])ccc4c3c(c2c1)NCCN4CCN(C)C", "TGI", "2.34 µM"],
  ["COc1cc(/C=N/c2nc3cc4sc(/N=C/c5cc(OC)c(OC)c(OC)c5)nc4cc3s2)cc(OC)c1OC", "TGI", "> 100 µM"]
]}

Parameter requested: TGI. Apply to each item below.
1. CC(C)(C)OC(=O)N1C(OP(=O)(Oc2ccccc2)Oc2ccccc2)=CSc2ccccc21
2. O=C(COc1cccc(/C=C2\CSc3ccc(Cl)cc3C2=O)c1)c1ccc(Cl)cc1
3. Nc1[nH]c(=S)nc2nc3c(c(-c4ccccc4)c12)CCCC3
4. CN(C)Cc1cc(C(=O)/C=C/c2ccc(Cl)c(Cl)c2)cc(CN(C)C)c1O
5. CC(C)(C)CC(C)(C)c1ccc(O)c(Cc2ccc(Cl)cc2Cl)c1
6. CN/C=C(\C(=O)c1ccc(OC)c(OC)c1)c1ccc(OC)cc1
7. O=C1OC(C2Cc3ccc4c(c3C2=O)CCC4)c2ccccc21 (stereo not given)
8. COC(=O)c1cc(=O)n(-c2ccc3nn(C)nc3c2)cc1C(=O)OC

Result:
1. > 100 µM
2. 4.18 µM
3. > 100 µM
4. 2.79 µM
5. 3.03 µM
6. 38.2 µM
7. > 100 µM
8. > 100 µM
